The measurements presented in this section are drawn from PubChem BioAssay (NCI).

Would you mind telling me the reported growth inhibition of each entry?
Test Method Notes: NCI Yeast Anticancer Drug Screen. Data for the wt2 strain (AID 169);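 also: 0% = growth of vehicle-treated yeast cultures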
Run Conditions: S. cerevisiae wt2 strain growth inhibition; at 33.0 µM; active compounds read high
Procedure: Growth inhibition of yeast strains with defined genetic alterations is measured as a screen for potential anti-cancer activity. Selected strains with alterations in DNA damage repair or cell cycle control were exposed to compounds and growth inhibition was measured relative to vehicle treated controls. The strain used in this assay is wt2
The panel holds about 79,000 compounds, 15% with a hit somewhere; the sample as a whole holds those more often.
Expressed in %, but write only the number.

Query: Endpoint output: growth inhibition of `CCCCCCCCCCCCCCCCCCNC(=S)/N=C\C1=C(O)c2ccccc2C1=O` . Value?
Result: 13

Query: Endpoint output: growth inhibition of `CN(N=O)c1ccc(/C=C/c2ccnc3ccccc23)cc1` . Value?
Result: 28

Query: Endpoint output: growth inhibition of `O=NN(CCCl)C(=O)NC1CCCCC1` . Value?
Result: 11

Query: Endpoint output: growth inhibition of `CCNc1ccc2c(c1)C(=O)N(OS(C)(=O)=O)C2=O` . Value?
Result: 6

Query: Endpoint output: growth inhibition of `CCn1ncc(N=O)c1N` . Value?
Result: 25

Query: Endpoint output: growth inhibition of `CC(=O)c1cc2c(Cl)cc(Cl)cc2oc1=O` . Value?
Result: -40

Query: Endpoint output: growth inhibition of `CCOC(=O)c1csc(Br)n1` . Value?
Result: -4

Query: Endpoint output: growth inhibition of `O=C(NC(=S)Nc1ccccn1)c1ccccc1` . Value?
Result: -27

Query: Endpoint output: growth inhibition of `CCOC(=O)Nc1ccc2c(c1)Cc1ccccc1-2` . Value?
Result: 19

Query: Endpoint output: growth inhibition of CCC(c1ccc(O)cc1)C(CC)c1ccc(OCCN)cc1 (stereo not given) . Value?
Result: 8

Query: Endpoint output: growth inhibition of `NC(=O)N1c2ccccc2C=Cc2ccccc21` . Value?
Result: -38

Query: Endpoint output: growth inhibition of `O=[N+]([O-])c1c(/C=N/Nc2ccccc2)oc(-c2ccc3c(c2)OCO3)c1-c1ccc2c(c1)OCO2` . Value?
Result: 44

Query: Endpoint output: growth inhibition of CC1=CC2C(C(C)C)CC1C1C(=O)OC(=O)C21 (stereo not given) . Value?
Result: 36

Query: Endpoint output: growth inhibition of `O=Cc1coc2ccccc2c1=O` . Value?
Result: 12

Query: Endpoint output: growth inhibition of `CNc1ccc(Cc2c[nH]c3ccccc23)cc1` . Value?
Result: -5

Query: Endpoint output: growth inhibition of `O=C(Nc1ccc2c(c1)Cc1c-2ccc([N+](=O)[O-])c1F)C(F)(F)F` . Value?
Result: 2

Query: Endpoint output: growth inhibition of `C=C1N(C)c2ccc(Cl)cc2C1(C)C` . Value?
Result: -23

Query: Endpoint output: growth inhibition of `COc1cc(CNc2ccc(C(C)C)cc2)cc(OC)c1OC` . Value?
Result: -20

Query: Endpoint output: growth inhibition of `COc1cc(NCc2ccc3nc(N)nc(N)c3c2C)cc(OC)c1OC` . Value?
Result: -2

Query: Endpoint output: growth inhibition of CC1(C)C(C=O)=CCC1CC(N)=O (stereo not given) . Value?
Result: 9

Query: Endpoint output: growth inhibition of `CCCc1[nH]nc(C(N)=O)c1N=NN(C)C` . Value?
Result: 3

Query: Endpoint output: growth inhibition of CC1=CCCC2C1(C)CCC(C)C2(C)Cc1cc(O)ccc1O (stereo not given) . Value?
Result: 97

Query: Endpoint output: growth inhibition of `CC(C)(C)c1ccc(O)c(C(c2ccc([N+](=O)[O-])cc2)c2cc(C(C)(C)C)ccc2O)c1` . Value?
Result: 81

Query: Endpoint output: growth inhibition of `C=C(C)[C@@H]1CCc2c(O)c(O)c(=O)cc(C)c2C1` . Value?
Result: 91

Query: Endpoint output: growth inhibition of `O=C(N/N=C\c1c(Cl)cccc1Cl)N/N=C/c1c(Cl)cccc1Cl` . Value?
Result: -3

* * *

Test Method Notes: NCI Yeast Anticancer Drug Screen. Data for the bub3 strain (AID 167)
Run Conditions: S. cerevisiae bub3 mutant strain, at 100.0 µM, active compounds read high
About 79,000 compounds went through this panel and 15% of them were active in at least one assay; those are over-represented in the sample as a whole.
Please mark true (1) if the recorded growth inhibition is equal to or greater than 60%, and false (0) if it falls below.

Query: Entry N#CSC1CCCCNC1=O (configuration not stated) : is its growth inhibition no less than 60%?
Result: true (1)

Query: Entry Nc1nc(N)c2c(n1)CCC(S(=O)(=O)c1ccc3ccccc3c1)C2 (configuration not stated) : is its growth inhibition no less than 60%?
Result: false (0)

Query: Entry `Cc1cc(O)c2c(c1)C(=O)C=C(Br)C2=O` : is its growth inhibition no less than 60%?
Result: true (1)

Query: Entry `[N-]=[N+]=NC(c1ccccc1)(c1ccccc1)c1ccccc1` : is its growth inhibition no less than 60%?
Result: true (1)

Query: Entry `O=c1[nH]c2ccccc2c2nc3ccccc3n12` : is its growth inhibition no less than 60%?
Result: false (0)

Query: Entry `CCCCCC(=O)c1ccc(O)cc1O` : is its growth inhibition no less than 60%?
Result: true (1)

Query: Entry `O=C1c2c(O)cccc2-c2nn(CCNCCO)c3ccc(NCCNCCO)c1c23` : is its growth inhibition no less than 60%?
Result: false (0)

Query: Entry `CC(=O)CC(=O)/C=C/c1cccs1` : is its growth inhibition no less than 60%?
Result: true (1)

Query: Entry `COc1ccc(N)c2c1C(=O)c1ccccc1C2=O` : is its growth inhibition no less than 60%?
Result: true (1)

Query: Entry `CCOC(=O)C1=C(C)NC(C)=C(C(=O)OCC)C1c1ccccc1Cl` : is its growth inhibition no less than 60%?
Result: true (1)

Query: Entry `O=C1C=CC(=O)N1c1ccc2c(c1)OCO2` : is its growth inhibition no less than 60%?
Result: true (1)

Query: Entry `N#C/C(=C/c1c(Cl)cccc1Cl)C(N)=O` : is its growth inhibition no less than 60%?
Result: true (1)

Query: Entry CCCCCCCCCCCCCC(=O)OC(C)CCC1CCCO1 (configuration not stated) : is its growth inhibition no less than 60%?
Result: false (0)

Query: Entry `O=C(Nc1cccc(C(F)(F)F)c1)Oc1ccc(Cl)cc1C(=O)c1ccccc1` : is its growth inhibition no less than 60%?
Result: true (1)

Query: Entry `N#Cc1sc2c(c1OC(=O)c1ccco1)c(=O)n(-c1ccccc1)c(=S)n2-c1ccccc1` : is its growth inhibition no less than 60%?
Result: false (0)

Query: Entry `CNc1nc(C)nc2c1cnn2-c1ccc([N+](=O)[O-])cc1` : is its growth inhibition no less than 60%?
Result: false (0)

Query: Entry `CCN1/C(=C/c2ccc3ccccc3[n+]2CC)C=Cc2ccccc21` : is its growth inhibition no less than 60%?
Result: true (1)

Query: Entry `Nc1ccc(S(=O)(=O)Nc2ccc(Nc3c4ccccc4nc4ccccc34)cc2)cc1` : is its growth inhibition no less than 60%?
Result: false (0)

Query: Entry `CCCCOC(=O)CSSCC(=O)OCCCC` : is its growth inhibition no less than 60%?
Result: true (1)

Query: Entry `NC(N)=NCCCS(=O)(=O)Nc1ccc(Nc2c3ccccc3nc3cc([N+](=O)[O-])ccc23)cc1` : is its growth inhibition no less than 60%?
Result: true (1)

Query: Entry CN(C)CC1CCCc2ccccc2C1=O (configuration not stated) : is its growth inhibition no less than 60%?
Result: true (1)

Query: Entry `O=C(CCc1ccccc1)ON1C(=S)C(c2ccccc2)(c2ccccc2)N=C1Sc1ccccc1` : is its growth inhibition no less than 60%?
Result: false (0)

Query: Entry NP1(Oc2ccc(F)cc2)=NP(N)(Oc2ccc(F)cc2)=NP(Oc2ccc(F)cc2)(Oc2ccc(F)cc2)=N1 (configuration not stated) : is its growth inhibition no less than 60%?
Result: true (1)

Query: Entry `CCOC(=O)CNC(=O)c1[nH]cnc1/N=N/N(C)C` : is its growth inhibition no less than 60%?
Result: true (1)

Query: Entry `O=Cc1coc2ccccc2c1=O` : is its growth inhibition no less than 60%?
Result: false (0)

Query: Entry `NC(=O)N1c2ccccc2C=Cc2ccccc21` : is its growth inhibition no less than 60%?
Result: false (0)

Query: Entry `CC(=O)N1C(=O)/C(=C\C(=O)c2ccc(Cl)cc2)c2ccccc21` : is its growth inhibition no less than 60%?
Result: true (1)

Query: Entry `COc1ccc(/C(C#N)=C/c2ccc(OC)c(OC)c2)cc1` : is its growth inhibition no less than 60%?
Result: false (0)

Query: Entry `CN(CC(=O)O)c1ccc(/C=C/c2ccnc3ccccc23)cc1` : is its growth inhibition no less than 60%?
Result: false (0)

Query: Entry `Nc1nc(N)c2cc(Sc3ccc4ccccc4c3)ccc2n1` : is its growth inhibition no less than 60%?
Result: true (1)

Query: Entry `Cn1c2nc3ccccc3c-2nc2ccccc21` : is its growth inhibition no less than 60%?
Result: true (1)

Query: Entry `CCOC(=O)C1=C(C)NC(C)=C(C(=O)OCC)C1c1ccc(C)cc1` : is its growth inhibition no less than 60%?
Result: true (1)

Query: Entry `CCN(CC)CCNC(=O)c1nn(-c2ccc(Cl)cc2)c2c1CCc1cc(OC)ccc1-2` : is its growth inhibition no less than 60%?
Result: true (1)

Query: Entry `COc1ccc2c(c1)[nH]c1c(/C=C/c3ccccc3)nccc12` : is its growth inhibition no less than 60%?
Result: true (1)

Query: Entry `N#C/C(=C1C=C/C(=N/O)c2ccccc2/1)c1ccccc1` : is its growth inhibition no less than 60%?
Result: false (0)

Query: Entry `CCN(CC)N=Nc1c(C(N)=O)n[nH]c1C` : is its growth inhibition no less than 60%?
Result: false (0)

Query: Entry `Cc1ccc(Nc2n[nH]c(=S)s2)cc1` : is its growth inhibition no less than 60%?
Result: true (1)

Query: Entry `Nc1ccc(CCl)cc1Cc1c(O)ccc2ccccc12` : is its growth inhibition no less than 60%?
Result: false (0)

Query: Entry CCN(CC)CC(O)C1CCC(c2ccccc2)CC1 (configuration not stated) : is its growth inhibition no less than 60%?
Result: true (1)

Query: Entry `C=C1N(C)c2ccc(Cl)cc2C1(C)C` : is its growth inhibition no less than 60%?
Result: true (1)

Query: Entry `CCCCCCCCCCCCCCCCNC(=O)/C(=C\c1ccc(Cl)c(Cl)c1)NC(=O)c1ccccc1` : is its growth inhibition no less than 60%?
Result: true (1)

Query: Entry `O=C(NCCCCCN1CCC2(CCCCC2)CC1)C(C1CCCCC1)C1CCCCC1` : is its growth inhibition no less than 60%?
Result: true (1)

Query: Entry CCC(NC(C)c1ccccc1)C(=O)c1ccc(OCc2ccccc2)c(OCc2ccccc2)c1 (configuration not stated) : is its growth inhibition no less than 60%?
Result: false (0)

Query: Entry `Cc1ccc2c(ccc(/C=C/c3ccc(O)c4ncccc34)[n+]2C)c1` : is its growth inhibition no less than 60%?
Result: true (1)

Query: Entry CCOC(=O)C(NC(=O)CC)(N1CCN(c2cc3c(cc2F)c(=O)c(C(=O)O)cn3C2CC2)CC1)C(F)(F)F (configuration not stated) : is its growth inhibition no less than 60%?
Result: true (1)
